Form field: screen value (one value per entry).
B1: PIP5K1C peptide 640-655 (Phosphatidylinositol 4-phosphate 5-kinase type-1 gamma), 16-mer library wild type / TLN1 PTB (TLN1 Phosphotyrosine-binding (PTB) domain, residues 309-401) (parent)
chain 1: FPTDERSWVYSPLHYS
chain 2: GVSFFLVKEKMKGKNKLVPRLLGITKECVMRVDEKTKEVIQEWNLTNIKRWAASPKSFTLDFGDYQDGYYSVQTTEGEQIAQLIAGYIDIILK

# Variants of: B1
# experimental details: proteomic peptide phage display deep mutational scan (ProP-PD DMS): M13 P8 16-mer library selected against immobilised GST-tagged bait for four days (rounds), NGS of the eluted pools per day and pseudo-replica
# run parameters: with TLN1 PTB (TLN1 Phosphotyrosine-binding (PTB) domain, residues 309-401); bait immobilised on MaxiSorp plates (10 µg), library pre-cleared on GST, 2 h binding at 4 °C, five washes; one round per day, days 1-4; value from days 2 and 3; keep out of graded; scale: average fractional NGS count over selection days 2 and 3
The response must contain the number and no unit.

>  <sequence record>
chain 1 FPTDERSWVFSPLHYS [chain 1 Y10F]

>  <screen value>
0.000662

$$$$
>  <sequence record>
chain 1 FPTIERSWVYSPLHYS [chain 1 D4I]

>  <screen value>
7.24e-05

$$$$
>  <sequence record>
chain 1 FPTDERSWVYSPLHYL [chain 1 S16L]

>  <screen value>
0.000143

$$$$
>  <sequence record>
chain 1 FQTDERSWVYSPLHYS [chain 1 P2Q]

>  <screen value>
7.98e-05

$$$$
>  <sequence record>
chain 1 FPTDERSWVYSPLHYP [chain 1 S16P]

>  <screen value>
0.000199

$$$$

Incoming: Endpoint output: screen value of chain 1 FPTDERTWVYSPLHYS [chain 1 S7T] . Value?
Outgoing: 0.000136

Incoming: Endpoint output: screen value of chain 1 FPTDERNWVYSPLHYS [chain 1 S7N] . Value?
Outgoing: 3.76e-05

Incoming: Endpoint output: screen value of chain 1 FPTDERSWVYSPFHYS [chain 1 L13F] . Value?
Outgoing: 0.00025

Incoming: Endpoint output: screen value of chain 1 FPTDERSWVYSPLHYI [chain 1 S16I] . Value?
Outgoing: 0.00119

Incoming: Endpoint output: screen value of chain 1 FPTDERSWVLSPLHYS [chain 1 Y10L] . Value?
Outgoing: 0.000358

Incoming: Endpoint output: screen value of chain 1 FPTDERSWVYSPLHYA [chain 1 S16A] . Value?
Outgoing: 0.000894
